Each entry below carries its recorded Kd.
# experimental.target: T1, Human TNFR2 (human, UniProt P20333 23-461)
# T1 construct: On cells: HeLa-TNFR2, HT1080-Bcl2-TNFR2, transiently transfected HEK293; endogenous on Kym-1 cells; also called huTNFR2; TNFRSF1B
# T1 sequence: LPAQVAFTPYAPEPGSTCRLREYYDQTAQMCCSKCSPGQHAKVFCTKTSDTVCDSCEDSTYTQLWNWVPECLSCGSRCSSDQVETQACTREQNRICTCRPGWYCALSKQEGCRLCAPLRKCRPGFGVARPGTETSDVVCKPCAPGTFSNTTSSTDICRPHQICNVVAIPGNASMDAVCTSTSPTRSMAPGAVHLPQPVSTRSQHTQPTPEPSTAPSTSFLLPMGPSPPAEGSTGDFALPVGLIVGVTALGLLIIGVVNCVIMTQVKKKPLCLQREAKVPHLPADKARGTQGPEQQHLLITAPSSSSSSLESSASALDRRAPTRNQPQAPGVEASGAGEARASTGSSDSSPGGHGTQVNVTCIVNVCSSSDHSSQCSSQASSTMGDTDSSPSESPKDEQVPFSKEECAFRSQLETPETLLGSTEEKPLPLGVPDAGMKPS
# assay.explanation: equilibrium binding of VHH-Fc-GpL to cells expressing human TNFR2, 37 °C; HEK293 cells as unspecific binding; one-site fit of specific binding
property.measured: Kd (µg/mL)

1) VHH:C18-Fc-GpL (Fc fusion, also called VHH-Fc-GpL variant of C18; not shown: The Fc domain, the C-terminal GpL reporter and the linkers or tags of the VHH-Fc-GpL construct; No entry gives the joined chain or says which Fc variant was used) VHH: DVQLVESGGGSVQTGGSLTLSCAISGSTSERYCMGWFRQAPGREREGVAATSLTGRGAQFYADSVKGRFTISLDDAKNTLYLQMDSLRPDDTAVYYCAADVGFLCGYDSDNDPFYDWGQGTQVTVSS :: 0.23
2) VHH:C238-Fc-GpL (Fc fusion, also called VHH-Fc-GpL format protein of C238; not shown: the listing has no entry for the VHH-Fc-GpL format) VHH: QVQLVESGGGSVQPGGSLTLSCVDSGSAYLSYCMAWFRQAPGKEREGVAAIYYGGDSYYADSVKGRFTISQDHAKNTMYLQMNSLKPEDTAVYYCAADVGFICGYDSDNDPPNDWGQGTQVTVSS :: 0.67
3) VHH:C188-Fc-GpL (Fc fusion, Gaussia princeps, also called VHH-Fc-GpL format protein of C188; not shown: Fc domain; Gaussia princeps luciferase (GpL) reporter domain at the C-terminus of the Fc) DVQLVESGGGSVQTGGSLTLSCAISGSTSERYCLGWFRQAPGREREGVAATSLTGRGAQFYADSVKGRFTISLDDAKNTLYLQMDSLRPDDTAVYYCAEDVGFLCGYDSDNDPFYDWGQGTQVTVSS :: 0.57
4) VHH:C74-Fc-GpL (Fc fusion, also called VHH-Fc-GpL variant of C74; not shown: The Fc domain, the C-terminal GpL reporter and the linkers or tags of the VHH-Fc-GpL construct; No entry gives the joined chain or says which Fc variant was used) VHH: DVQLVESGGGLVQSGGSLRLSCAASGFPFSSSDMTWVRQTSGSVFEWVSDINPDGQNTRYADSVKGRFIISRDNAKSTLYLQMDSLKTDDTAVYYCAADPGSSGGSLSYWGKGTLVTVSS :: 0.08
